Test system: Mtb Praha 131
Experiment: microbe, parasite or virus in culture
Type: cell-based
Settings: Mycobacterium tuberculosis, PRAHA131, 504 h, read-out: MIC Mtb Praha 131
Listing: MIC of selected compounds
Enter your answer as a number in µM; do not include the unit.

Worked cases, MIC given:
- structure-string: "CCCCCCCCCCCCCNc1nnc(-c2cc([N+](=O)[O-])cc([N+](=O)[O-])c2)o1"
  experimental-system: "Mtb Praha 131"
  quantity-unit: "µM"
  MIC: 0.125
- structure-string: "CCCCCCCCCCCCNc1nnc(-c2cc([N+](=O)[O-])cc([N+](=O)[O-])c2)s1"
  experimental-system: "Mtb Praha 131"
  quantity-unit: "µM"
  MIC: 1
- structure-string: "CCCCNc1nnc(-c2cc([N+](=O)[O-])cc([N+](=O)[O-])c2)o1"
  experimental-system: "Mtb Praha 131"
  quantity-unit: "µM"
  MIC: 1

Exercise: # MIC lookup, item CCCCCCCCNC(=O)NNC(=O)c1cc([N+](=O)[O-])cc([N+](=O)[O-])c1
Solution: 1

Exercise: # MIC lookup, item CCCCCCCNc1nnc(-c2cc([N+](=O)[O-])cc([N+](=O)[O-])c2)o1
Solution: 0.06

###

System: Mtb Praha 4
Test: microbe, parasite or virus in culture
Format: cell-based
Settings: Mycobacterium tuberculosis, PRAHA4, 504 h, read-out: MIC Mtb Praha 4
Listing: MIC of selected compounds
Enter your answer as a number in µM; do not include the unit.

- structure-string: "CCCCCCCCNC(=O)NNC(=O)c1cc([N+](=O)[O-])cc([N+](=O)[O-])c1"
  experimental-system: "Mtb Praha 4"
  MIC (µM): 1

Exercise: # MIC lookup, item CCCCCCCCCCCCNc1nnc(-c2cc([N+](=O)[O-])cc([N+](=O)[O-])c2)o1
Solution: 0.5

Exercise: # MIC lookup, item O=[N+]([O-])c1cc(-c2nnc(NCc3ccc(Cl)cc3Cl)o2)cc([N+](=O)[O-])c1
Solution: 0.125

###

Tested on: Mtb 234/2005
Test: microbe, parasite or virus in culture
Assay type: cell-based
Details: Mycobacterium tuberculosis, 234/2005, 504 h, read-out: MIC Mtb 234/2005
Listing: log10 MIC of selected molecules
Note the log scale: values are log10 of MIC expressed in µM.

- structure-string: "CCCCCCCCCCCNc1nnc(-c2cc([N+](=O)[O-])cc([N+](=O)[O-])c2)o1"
  outcome-measure: "log10 MIC"
  obs-value: -0.30
- structure-string: "CCCCCCCCCCCCNc1nnc(-c2cc([N+](=O)[O-])cc([N+](=O)[O-])c2)o1"
  outcome-measure: "log10 MIC"
  obs-value: -0.30
- structure-string: "CCCCCCCCNc1nnc(-c2cc([N+](=O)[O-])cc([N+](=O)[O-])c2)o1"
  outcome-measure: "log10 MIC"
  obs-value: -0.90
- structure-string: "CCCCCCCCCCCCCNc1nnc(-c2cc([N+](=O)[O-])cc([N+](=O)[O-])c2)o1"
  outcome-measure: "log10 MIC"
  obs-value: -0.90
- structure-string: "COc1ccc(CNc2nnc(-c3cc([N+](=O)[O-])cc([N+](=O)[O-])c3)o2)cc1"
  outcome-measure: "log10 MIC"
  obs-value: -1.22
- structure-string: "CCCCCCCCCNC(=O)NNC(=O)c1cc([N+](=O)[O-])cc([N+](=O)[O-])c1"
  outcome-measure: "log10 MIC"
  obs-value: 0.30
- structure-string: "CCCCNc1nnc(-c2cc([N+](=O)[O-])cc([N+](=O)[O-])c2)o1"
  outcome-measure: "log10 MIC"
  obs-value: 0.00
- structure-string: "O=[N+]([O-])c1cc(-c2nnc(NCc3ccc(Cl)cc3Cl)o2)cc([N+](=O)[O-])c1"
  outcome-measure: "log10 MIC"
  obs-value: -0.90

Exercise: # log10 MIC lookup, item CCCCCCCCCCCCNc1nnc(-c2cc([N+](=O)[O-])cc([N+](=O)[O-])c2)s1
Solution: 0.00

###

Test system: Mtb Praha 4
Assay: microbe, parasite or virus in culture
Format: cell-based
Conditions: Mycobacterium tuberculosis, PRAHA4, 504 h, read-out: MIC Mtb Praha 4
Listing: MIC of selected molecules
Enter your answer as a number in µM; do not include the unit.

- molecule: "CCCCNc1nnc(-c2cc([N+](=O)[O-])cc([N+](=O)[O-])c2)o1 [Compound 5d]"
  obs-value: 1
- molecule: "CCCCCCCNC(=O)NNC(=O)c1cc([N+](=O)[O-])cc([N+](=O)[O-])c1 [Compound 4g]"
  obs-value: 1
- molecule: "CCCCCCCCCNc1nnc(-c2cc([N+](=O)[O-])cc([N+](=O)[O-])c2)o1 [Compound 5i]"
  obs-value: 0.125

Exercise: # MIC lookup, item CCCCCCCCCNC(=O)NNC(=O)c1cc([N+](=O)[O-])cc([N+](=O)[O-])c1 [Compound 4i]
Solution: 1

Exercise: # MIC lookup, item CCCCCCCCCCNc1nnc(-c2cc([N+](=O)[O-])cc([N+](=O)[O-])c2)o1 [Compound 5j]
Solution: 0.5

###

Listing: MIC of selected compounds
Tested on: Mtb 7357/1998
Experiment: microbe, parasite or virus in culture
Assay type: cell-based
Settings: Mycobacterium tuberculosis, 7357/1998, 336 h, read-out: MIC Mtb 7357/1998
Enter your answer as a number in µM; do not include the unit.

- structure-string: "CCCCCCCNC(=O)NNC(=O)c1cc([N+](=O)[O-])cc([N+](=O)[O-])c1"
  experimental-system: "Mtb 7357/1998"
  MIC / µM: 1

Exercise: # MIC lookup, item CCCCCCCCCCNc1nnc(-c2cc([N+](=O)[O-])cc([N+](=O)[O-])c2)o1
Solution: 0.25

Exercise: # MIC lookup, item CCCCCCCCCCCCNc1nnc(-c2cc([N+](=O)[O-])cc([N+](=O)[O-])c2)o1
Solution: 0.5

Exercise: # MIC lookup, item CCCCNc1nnc(-c2cc([N+](=O)[O-])cc([N+](=O)[O-])c2)o1
Solution: 0.5

Exercise: # MIC lookup, item O=[N+]([O-])c1cc(-c2nnc(NCc3ccc(Cl)cc3Cl)o2)cc([N+](=O)[O-])c1
Solution: 0.125

Exercise: # MIC lookup, item CCCCCNc1nnc(-c2cc([N+](=O)[O-])cc([N+](=O)[O-])c2)o1
Solution: 0.125

Exercise: # MIC lookup, item CCCCCCCCNC(=O)NNC(=O)c1cc([N+](=O)[O-])cc([N+](=O)[O-])c1
Solution: 1

Exercise: # MIC lookup, item CCCCCCCCCCCNc1nnc(-c2cc([N+](=O)[O-])cc([N+](=O)[O-])c2)o1
Solution: 0.25

###

System: Mtb Praha 131
Assay: microbe, parasite or virus in culture
Format: cell-based
Conditions: Mycobacterium tuberculosis, PRAHA131, 336 h, read-out: MIC Mtb Praha 131
Listing: MIC of selected molecules

- molecule: "COc1ccc(CNc2nnc(-c3cc([N+](=O)[O-])cc([N+](=O)[O-])c3)s2)cc1 [Compound 8b]"
  MIC: "≤ 0.03 µM"
- molecule: "CCCCCCCCNc1nnc(-c2cc([N+](=O)[O-])cc([N+](=O)[O-])c2)o1 [Compound 5h]"
  MIC: "0.125 µM"
- molecule: "CCCCCCNc1nnc(-c2cc([N+](=O)[O-])cc([N+](=O)[O-])c2)o1 [Compound 5f]"
  MIC: "≤ 0.03 µM"

Exercise: # MIC lookup, item CCCCCNc1nnc(-c2cc([N+](=O)[O-])cc([N+](=O)[O-])c2)o1 [Compound 5e]
Solution: 0.125 µM

Exercise: # MIC lookup, item CCCCCCCNC(=O)NNC(=O)c1cc([N+](=O)[O-])cc([N+](=O)[O-])c1 [Compound 4g]
Solution: 1 µM

Exercise: # MIC lookup, item CCCCCCCCCCNc1nnc(-c2cc([N+](=O)[O-])cc([N+](=O)[O-])c2)o1 [Compound 5j]
Solution: 0.25 µM

Exercise: # MIC lookup, item CCCCCCCCCCCCNc1nnc(-c2cc([N+](=O)[O-])cc([N+](=O)[O-])c2)s1 [Compound 5s]
Solution: 1 µM

Exercise: # MIC lookup, item CCCCNc1nnc(-c2cc([N+](=O)[O-])cc([N+](=O)[O-])c2)o1 [Compound 5d]
Solution: 0.5 µM

###

Tested on: Mtb 7357/1998
Experiment: microbe, parasite or virus in culture
Assay type: cell-based
Settings: Mycobacterium tuberculosis, 7357/1998, 336 h, read-out: MIC Mtb 7357/1998
Label 1.0 when MIC is strictly below 0.5 µM; at or above that, label 0.0.

- structure-string: "CCCCCCCNc1nnc(-c2cc([N+](=O)[O-])cc([N+](=O)[O-])c2)o1"
  class-label: 1.0
- structure-string: "CCCCCCCCCNC(=O)NNC(=O)c1cc([N+](=O)[O-])cc([N+](=O)[O-])c1"
  class-label: 0.0
- structure-string: "CCCCCCCCNc1nnc(-c2cc([N+](=O)[O-])cc([N+](=O)[O-])c2)o1"
  class-label: 1.0
- structure-string: "CCCCCCNc1nnc(-c2cc([N+](=O)[O-])cc([N+](=O)[O-])c2)o1"
  class-label: 1.0

Exercise: Consider CCCCCCCCCNc1nnc(-c2cc([N+](=O)[O-])cc([N+](=O)[O-])c2)o1 . Does its MIC lie strictly below 0.5 µM?
Solution: 1.0

Exercise: Consider CCCCCCCCCCCCNC(=S)NNC(=O)c1cc([N+](=O)[O-])cc([N+](=O)[O-])c1 . Does its MIC lie strictly below 0.5 µM?
Solution: 0.0

Exercise: Consider CCCCCCCCCCCCCNc1nnc(-c2cc([N+](=O)[O-])cc([N+](=O)[O-])c2)o1 . Does its MIC lie strictly below 0.5 µM?
Solution: 1.0
